System: Plasmodium falciparum
Experiment: Antiplasmodial activity after 48 hrs against Plasmodium falciparum K1 in human erythrocytes
Type: functional, organism-based
Value Kind: IC50
Record the result as number plus unit.

structure_string=CC(C)=CCC[C@]1(C)[C@@H](CC=C(C)C)C[C@]2(CC=C(C)C)C(=O)C(CC=C(C)C)=C(O)[C@@]1(C(=O)C(C)C)C2=O measured="2100 nM"

Sample CC(C)CCC[C@]1(C)[C@@H](CCC(C)C)C[C@@]2(CCC(C)C)C(=O)[C@]1(C(=O)C(C)C)C(=O)C(CCC(C)C)=C2O ; IC50 observed: 1400 nM

###

Test system: L6
Assay: Cytotoxicity against rat L6 cells after 72 hrs
Assay type: cell-based
Settings: Rattus norvegicus, L6, 72 h
Value Kind: IC50

Below: 6 molecules and their reported IC50.
molecule=CC(C)=C/C=C1/OC(=O)[C@@]2(CC=C(C)C)C[C@H](CC=C(C)C)[C@@](C)(CCC=C(C)C)[C@H](C(=O)C(C)C)C(=O)[C@@]12O measured="36 µM"
molecule=CC(C)=CCC[C@]1(C)[C@@H](CC=C(C)C)C[C@]2(CC=C(C)C)C(=O)C(CC=C(C)C)=C(O)[C@@]1(C(=O)C(C)C)C2=O measured="2.21 µM"
molecule=CC(C)=CCC[C@]1(C)[C@@H](CC=C(C)C)C[C@]2(CC=C(C)C)C(=O)[C@@]3(CC=C(C)C)O[C@@]2(O)[C@]1(C(=O)C(C)C)C3=O measured="16.1 µM"
molecule="CC(C)=CCC[C@]1(C)[C@@H](CC=C(C)C)C[C@@]2(CC=C(C)C)C(=O)[C@]1(C(=O)C(C)C)C(=O)C(CC=C(C)C)=C2OC(=O)c1cccnc1 [HYPERFORINNICOTINATE]" measured="23.9 µM"
molecule=CC(C)=CCC[C@]1(C)[C@@H](CC=C(C)C)C[C@]2(CC=C(C)C)C(=O)[C@@](O)(CC=C(C)C)C(=O)[C@@]1(C(=O)C(C)C)C2=O measured="19.7 µM"
molecule="CC(C)CCC[C@]1(C)[C@@H](CCC(C)C)C[C@@]2(CCC(C)C)C(=O)[C@]1(C(=O)C(C)C)C(=O)C(CCC(C)C)=C2O [OCTAHYDROHYPERFORIN]" measured="2.12 µM"

Switching to the query record.
Sample CC(C)=CCC[C@]1(C)[C@@H](CC=C(C)C)C[C@]23CC(C(C)(C)O)OC2=C(CC=C(C)C)C(=O)[C@@]1(C(=O)C(C)C)C3=O (some centres not stated) ; IC50 observed: 16.1 µM
